Source listed as ChEMBL document CHEMBL3085739.

- ASSAY: Cmax in Sprague-Dawley rat at 25 mg/kg, po by LC/MS analysis
- Type: ADME, organism-based
- Set-up: dose 25 mg/kg, route oral
- EXPERIMENTAL PARAMETERS: in vivo
Please note: yes applies when Cmax is 800 ng/mL or greater, and no applies otherwise.

Example results:
QUERY SMILES | CLASS ASSIGNMENT
C=CC(=O)N1CC[C@H](N2C(=O)N(c3ccccc3)Cc3cnc(Nc4ccc(N5CCN(C)CC5)c(F)c4)nc32)C1 | yes
C=CC(=O)N1CC[C@H](N2C(=O)N(c3ccccc3)Cc3cnc(Nc4cccc(N5CCN(C)CC5)c4)nc32)C1 | no
C=CC(=O)N1CC[C@H](N2C(=O)N(c3ccccc3)Cc3cnc(Nc4ccc(N5CCN(C)CC5)c(C)c4)nc32)C1 | yes
C=CC(=O)N1CC[C@H](N2C(=O)N(c3ccccc3)Cc3cnc(Nc4ccc(C5CCN(C)CC5)cc4)nc32)C1 | no
C=CC(=O)N1CC[C@H](N2C(=O)N(c3ccccc3)Cc3cnc(Nc4ccc(N5CCN(C)CC5)cc4OC)nc32)C1 | no
C=CC(=O)N1CC[C@H](N2C(=O)N(c3ccccc3)Cc3cnc(Nc4ccc(CCN5CCN(C)CC5)cc4)nc32)C1 | no
C=CC(=O)N1CC[C@H](N2C(=O)N(Cc3ccccc3)Cc3cnc(Nc4ccc(N5CCN(C)CC5)cc4OC)nc32)C1 | no
C=CC(=O)N1CC[C@H](N2C(=O)N(c3ccccc3)Cc3cnc(Nc4ccc(N5CCN(C)CC5)c(OC)c4)nc32)C1 | no

Next up:
Assess whether reported Cmax for C=CC(=O)N1CC[C@H](N2C(=O)N(c3ccccc3)Cc3cnc(Nc4ccccc4)nc32)C1 sits at 800 ng/mL or higher. yes

----------
- ASSAY: Cmax in Sprague-Dawley rat at 5 mg/kg, iv by LC/MS analysis
- Type: ADME, organism-based
- Parameters: dose 5 mg/kg, route intravenous
- EXPERIMENTAL PARAMETERS: in vivo
RECORDED METRIC: Cmax (ng/mL)
Provide only the numeric value, understood in ng/mL.

Example entries and their recorded answers appear below.
QUERY SMILES | RECORDED METRIC | UNITS LABEL | RECORDED VALUE
C=CC(=O)N1CC[C@H](N2C(=O)N(c3ccccc3)Cc3cnc(Nc4cccc(N5CCN(C)CC5)c4)nc32)C1 | Cmax | ng/mL | 1820
C=CC(=O)N1CC[C@H](N2C(=O)N(c3ccccc3)Cc3cnc(Nc4ccc(N5CCN(C)CC5)c(C)c4)nc32)C1 | Cmax | ng/mL | 3980
C=CC(=O)N1CC[C@H](N2C(=O)N(c3ccccc3)Cc3cnc(Nc4ccccc4)nc32)C1 | Cmax | ng/mL | 6540
C=CC(=O)N1CC[C@H](N2C(=O)N(c3ccccc3)Cc3cnc(Nc4ccc(N5CCN(C)CC5)cc4)nc32)C1 | Cmax | ng/mL | 1520
C=CC(=O)Nc1cccc(N2C(=O)N(Cc3ccccc3)Cc3cnc(Nc4ccc(N5CCN(C)CC5)cc4OC)nc32)c1.CS(=O)(=O)O | Cmax | ng/mL | 4370

Write down Cmax measured for item C=CC(=O)N1CC[C@H](N2C(=O)N(c3ccccc3)Cc3cnc(Nc4ccc(CCN5CCN(C)CC5)cc4)nc32)C1 1410

Write down Cmax measured for item C=CC(=O)N1CC[C@H](N2C(=O)N(c3ccccc3)Cc3cnc(Nc4ccc(N5CCN(C)CC5)c(F)c4)nc32)C1 3260

Write down Cmax measured for item C=CC(=O)N1CC[C@H](N2C(=O)N(Cc3ccccc3)Cc3cnc(Nc4ccc(N5CCN(C)CC5)cc4OC)nc32)C1 784

Write down Cmax measured for item C=CC(=O)N1CC[C@H](N2C(=O)N(c3ccccc3)Cc3cnc(Nc4ccc(N5CCN(C)CC5)cc4OC)nc32)C1 1790

Write down Cmax measured for item C=CC(=O)N1CC[C@H](N2C(=O)N(c3ccccc3)Cc3cnc(Nc4ccc(N5CCN(C)CC5)c(OC)c4)nc32)C1 3410

----------
Measured solubility thermodynamic at 24 h of individual entries
- ASSAY: Thermodynamic aqueous solubility of the compound in PBS buffer at pH 6.8 after 24 hrs by HPLC analysis
- Assay type: physicochemical
- EXPERIMENTAL PARAMETERS: PBS buffer, pH 6.8; read-out: Therm_solubility
Provide only the numeric value, understood in µg/mL.

Example entries and their recorded answers appear below.
QUERY SMILES | UNITS LABEL | solubility thermodynamic at 24 h
C=CC(=O)NCCN1C(=O)N(Cc2ccccc2)Cc2cnc(Nc3ccc(N4CCN(C)CC4)cc3OC)nc21 | µg/mL | 96.7
C=CC(=O)N1CC[C@H](N2C(=O)N(c3ccccc3)Cc3cnc(Nc4ccc(N5CCN(C)CC5)c(Cl)c4)nc32)C1 | µg/mL | 214
C=CC(=O)N1CC[C@H](N2C(=O)N(c3ccccc3)Cc3cnc(Nc4ccc(N5CCN(C)CC5)c(C)c4)nc32)C1 | µg/mL | 1270
C=CC(=O)N1CC[C@@H](N2C(=O)N(Cc3ccccc3)Cc3cnc(Nc4ccc(N5CCN(C)CC5)cc4OC)nc32)C1 | µg/mL | 199
C=CC(=O)N1CC[C@H](N2C(=O)N(c3ccccc3)Cc3cnc(Nc4ccc(N5CCN(C)CC5)c(F)c4)nc32)C1 | µg/mL | 691
C=CC(=O)N1CC[C@H](N2C(=O)N(C3CCCC3)Cc3cnc(Nc4ccc(N5CCN(C)CC5)cc4OC)nc32)C1 | µg/mL | 250

Next molecule, solubility thermodynamic at 24 h to be filled in.
Write down solubility thermodynamic at 24 h measured for item C=CC(=O)N1CC[C@H](N2C(=O)N(c3ccccc3)Cc3cnc(Nc4ccc(N5CCN(C)CC5)c(C(F)(F)F)c4)nc32)C1 60.9

----------
- ASSAY: Clearance in Sprague-Dawley rat at 5 mg/kg, iv by LC/MS analysis
- Format: ADME, organism-based
- Design: dose 5 mg/kg, route intravenous
- EXPERIMENTAL PARAMETERS: in vivo
RECORDED METRIC: clearance (mL/min/kg)
Provide only the numeric value, understood in mL/min/kg.

Write down clearance measured for item C=CC(=O)N1CC[C@H](N2C(=O)N(c3ccccc3)Cc3cnc(Nc4ccc(N5CCN(C)CC5)cc4OC)nc32)C1 86.7

----------
- ASSAY: Thermodynamic aqueous solubility of the compound in PBS buffer at pH 6.8 after 24 hrs by HPLC analysis
- Type: physicochemical
- EXPERIMENTAL PARAMETERS: PBS buffer, pH 6.8; read-out: Therm_solubility
RECORDED METRIC: log10 solubility thermodynamic at 24 h (log10 of the value in µg/mL)
Values below are the log10 of the recorded solubility thermodynamic at 24 h, with µg/mL as the unit.

Write down log10 solubility thermodynamic at 24 h measured for item C=CC(=O)N1CC[C@H](N2C(=O)N(c3ccccc3)Cc3cnc(Nc4ccc(N5CCN(C)CC5)cc4OC)nc32)C1 3.19

----------
- MEASURED ON: Epidermal growth factor receptor (Homo sapiens, UniProt P00533, L858R/T790M)
- Sequence (P00533 25-1210 T790M/L858R limits assumed): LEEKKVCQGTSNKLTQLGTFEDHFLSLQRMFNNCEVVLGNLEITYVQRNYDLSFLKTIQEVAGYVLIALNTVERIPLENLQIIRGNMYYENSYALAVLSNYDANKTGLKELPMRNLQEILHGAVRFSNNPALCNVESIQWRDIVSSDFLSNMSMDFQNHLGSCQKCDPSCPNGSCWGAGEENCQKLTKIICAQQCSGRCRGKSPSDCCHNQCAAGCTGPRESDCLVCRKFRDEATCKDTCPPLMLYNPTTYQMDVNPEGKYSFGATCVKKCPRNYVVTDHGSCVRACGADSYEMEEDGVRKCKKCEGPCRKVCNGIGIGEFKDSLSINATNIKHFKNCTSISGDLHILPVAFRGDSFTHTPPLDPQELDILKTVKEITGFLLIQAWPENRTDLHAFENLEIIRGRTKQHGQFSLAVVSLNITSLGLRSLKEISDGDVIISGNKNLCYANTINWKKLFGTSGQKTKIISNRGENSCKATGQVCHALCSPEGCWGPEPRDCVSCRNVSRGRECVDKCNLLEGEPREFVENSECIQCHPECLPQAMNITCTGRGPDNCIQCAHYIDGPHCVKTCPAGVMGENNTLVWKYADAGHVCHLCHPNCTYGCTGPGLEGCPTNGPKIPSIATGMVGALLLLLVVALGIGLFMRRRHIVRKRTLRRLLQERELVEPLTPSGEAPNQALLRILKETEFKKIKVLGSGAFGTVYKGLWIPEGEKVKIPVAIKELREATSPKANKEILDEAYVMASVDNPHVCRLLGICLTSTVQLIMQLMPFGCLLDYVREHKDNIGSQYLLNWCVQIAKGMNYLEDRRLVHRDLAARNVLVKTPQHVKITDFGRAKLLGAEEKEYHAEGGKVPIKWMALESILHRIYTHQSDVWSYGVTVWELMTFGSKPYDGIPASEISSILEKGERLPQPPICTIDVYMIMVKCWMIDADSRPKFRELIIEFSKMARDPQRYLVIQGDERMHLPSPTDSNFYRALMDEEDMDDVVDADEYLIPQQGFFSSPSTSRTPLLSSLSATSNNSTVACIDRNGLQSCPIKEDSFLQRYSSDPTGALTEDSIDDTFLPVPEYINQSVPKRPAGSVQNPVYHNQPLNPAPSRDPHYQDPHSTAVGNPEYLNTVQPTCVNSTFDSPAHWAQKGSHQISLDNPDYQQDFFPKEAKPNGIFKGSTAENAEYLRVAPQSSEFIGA
- ASSAY: Inhibition of EGFR L858R/T790M double mutant (unknown origin) after 1.5 hrs by FRET-based Z'-Lyte assay
pIC50: −log10 of the molar value.
Please note: true (1) applies when pIC50 is 7 or greater, and false (0) applies otherwise.

Example results:
MOLECULE | CLASS ASSIGNMENT
C=CC(=O)N1CC[C@H](N2C(=O)N(Cc3ccccc3)Cc3cnc(Nc4ccc(N5CCN(C)CC5)cc4OC)nc32)C1 | true (1)
C=CC(=O)N1CC[C@H](N2C(=O)N(c3ccccc3)Cc3cnc(Nc4ccc(N5CCN(C)CC5)cc4)nc32)C1 | true (1)
C=CC(=O)N1CC[C@H](N2C(=O)N(c3ccccc3)Cc3cnc(Nc4ccc(N5CCN(C)CC5)c(C(F)(F)F)c4)nc32)C1 | true (1)
C=CC(=O)N1CC[C@H](N2C(=O)N(c3ccccc3)Cc3cnc(Nc4ccc(N5CCN(C)CC5)c(Cl)c4)nc32)C1 | true (1)
C=CC(=O)NC1CCC(N2C(=O)N(Cc3ccccc3)Cc3cnc(Nc4ccc(N5CCN(C)CC5)cc4OC)nc32)CC1 (stereo unspecified) | false (0)
C=CC(=O)NCCN1C(=O)N(Cc2ccccc2)Cc2cnc(Nc3ccc(N4CCN(C)CC4)cc3OC)nc21 | false (0)
C=CC(=O)N1CC[C@H](N2C(=O)N(c3ccccc3)Cc3cnc(Nc4ccc(C5CCN(C)CC5)cc4)nc32)C1 | true (1)
C=CC(=O)N1CC[C@H](N2C(=O)N(c3ccccc3)Cc3cnc(Nc4ccc(N5CCN(C)CC5)c(C)c4)nc32)C1 | true (1)
C=CC(=O)N1CC[C@H](N2C(=O)N(c3ccccc3)Cc3cnc(Nc4ccc(N5CCN(C)CC5)c(OC)c4)nc32)C1 | true (1)
C=CC(=O)N1CCC[C@H](N2C(=O)N(Cc3ccccc3)Cc3cnc(Nc4ccc(N5CCN(C)CC5)cc4OC)nc32)C1 | false (0)

Next up:
Assess whether reported pIC50 for C=CC(=O)N1CC[C@H](N2C(=O)N(C3CCCC3)Cc3cnc(Nc4ccc(N5CCN(C)CC5)cc4OC)nc32)C1 sits at 7 or higher. true (1)
